# Target or test system: UniProt P14416
# Sequence (P14416 whole entry): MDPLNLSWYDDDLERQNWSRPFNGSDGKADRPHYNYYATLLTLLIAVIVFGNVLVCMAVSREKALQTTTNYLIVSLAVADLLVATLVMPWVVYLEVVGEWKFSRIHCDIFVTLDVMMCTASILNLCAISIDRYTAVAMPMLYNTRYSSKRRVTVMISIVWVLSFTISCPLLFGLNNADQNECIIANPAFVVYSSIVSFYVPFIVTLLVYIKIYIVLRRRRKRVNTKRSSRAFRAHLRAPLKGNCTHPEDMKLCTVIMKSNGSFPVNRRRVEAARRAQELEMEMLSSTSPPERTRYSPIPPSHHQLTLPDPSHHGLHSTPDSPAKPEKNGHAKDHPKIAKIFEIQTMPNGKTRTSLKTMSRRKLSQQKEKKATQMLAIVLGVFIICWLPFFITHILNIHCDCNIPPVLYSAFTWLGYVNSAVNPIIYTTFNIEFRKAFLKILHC
# Procedure text: Agonist activity at human dopamine D2long receptor expressed in CHO cells assessed as induction of [3H]thymidine incorporation after 2 hrs
pEC50: −log10 of the molar value.
Measured endpoint: pEC50

Smiles text | Measured endpoint | Result value
CCCN(CCCCNC(=O)c1ccc(-c2ccccc2)cc1)[C@H]1CCn2nccc2C1 | pEC50 | 9.29

###

Recorded measurements of pKi, one per entry
# Target or test system: UniProt:P14416
# Procedure text: Displacement of [3H]spiperone from human dopamine D2long receptor expressed in CHO cells after 60 mins
# Assay type: cell-based
pKi: −log10 of the molar value.

Compound | pKi
CCCN(CCCCNC(=O)c1ccc(-c2ccccc2)cc1)[C@H]1CCn2nccc2C1 | 8.28
CCCN(CCCCNC(=O)c1ccc(-c2ccccc2)cc1)[C@@H]1CCn2nccc2C1 | 6.52
CCCN(CCC)[C@@H]1CCn2nccc2C1 | 4.26
CCCN(CCCCNC(=O)c1ccc(-c2ccccc2)cc1)C1CCn2nccc2C1 (racemic) | 6.82
CCCN(CCCCNC(=O)c1ccc(-c2ccccc2)cc1)C1Cc2cccn3ncc(c23)C1 (stereo not given) | 6.57

The reported measurements were obtained from ChEMBL document CHEMBL1765048.
